Record form. Attribute: pIC50. Fill in for each entry.
TARGET: Angiotensin-converting enzyme (Sus scrofa)
ASSAY PROTOCOL: Inhibitory activity on Angiotensin I converting enzyme (ACE) obtained from pig renal cortex and hippuryl-histidyl-leucine as substrate
Numbers only, as −log10 of the molar value.

In [3]: df
Out[3]:
                         structure_notation                                    target  value
0  C[C@H](N[C@@H](CCc1ccccc1)C(=O)O)C(=O)N1C(=O)N(Cc2ccccc2)C[C@H]1C(=O)O  Angiotensin-converting enzyme (Sus scrofa)   8.77

Please look at the items below and tell me pIC50 for each one, in order.
1. C[C@@H](N[C@@H](CCc1ccccc1)C(=O)O)C(=O)N1C(=O)N(Cc2ccccc2)C[C@H]1C(=O)O
2. CC(C)C[C@H](N[C@@H](C)C(=O)N1C(=O)N(Cc2ccccc2)C[C@H]1C(=O)O)C(=O)O
3. CCCCCCCC[C@H](N[C@@H](CC)C(=O)N1C(=O)N(C)C[C@H]1C(=O)O)C(=O)O
4. CCCCN1C[C@@H](C(=O)O)N(C(=O)[C@H](C)N[C@@H](CCc2ccccc2)C(=O)O)C1=O
5. CC[C@H](N[C@@H](CCc1ccccc1)C(=O)O)C(=O)N1C(=O)N(Cc2ccccc2)C[C@H]1C(=O)O
6. CCOC(=O)[C@H](CCc1ccccc1)N[C@@H](C)C(=O)N1C(=O)N(Cc2ccccc2)C[C@H]1C(=O)O

OUT:
1. 5.62
2. 8.68
3. 8.62
4. 8.17
5. 8.64
6. 5.10

IN: Determine from records and report pIC50 for "C[C@H](N[C@@H](CCc1ccccc1)C(=O)O)C(=O)N1C(=O)NC[C@H]1C(=O)O"
OUT: 8.46

###

TARGET: Angiotensin-converting enzyme (Sus scrofa)
ASSAY PROTOCOL: Inhibitory activity on Angiotensin I converting enzyme (ACE) obtained from pig renal cortex and hippuryl-histidyl-leucine as substrate
PROPERTY MEASURED: log10 IC50 (log10 of the value in nM)
Hello, just confirming the data are log10 of IC50 with units of nM.

In [3]: df
Out[3]:
                         structure_notation  value
0  CCCCCCCC[C@H](N[C@@H](C)C(=O)N1C(=O)N(Cc2ccccc2)C[C@H]1C(=O)O)C(=O)OCC   3.34
1  CCCCCCCC[C@H](N[C@@H](C)C(=O)N1C(=O)N(C)C[C@H]1C(=O)O)C(=O)OCC   3.71
2  C[C@H](N[C@@H](Cc1ccccc1)C(=O)O)C(=O)N1C(=O)N(Cc2ccccc2)C[C@H]1C(=O)O   1.04

Could you report log10 IC50 for every entry in the following list?
1. CC(C)CC[C@H](N[C@@H](C)C(=O)N1C(=O)N(Cc2ccccc2)C[C@H]1C(=O)O)C(=O)O
2. CCCCCCCC[C@H](N[C@@H](C)C(=O)N1C(=O)N(Cc2ccccc2)C[C@H]1C(=O)O)C(=O)O

OUT:
1. 0.52
2. 0.18
